Each recorded value in this set is attributed to patent US6448405B1.

A collection of compounds and their measured PR Agonist CV-1 Cells Efficacy (%)
target: human PR-B (Homo sapiens); construct: expressed in transfected cells; host or cells: CV-1 cells (African green monkey kidney fibroblasts), transient transfection; assay: Co-transfection assay, PR agonist and antagonist activity, CV-1 cells; format: cell-based;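 note: luciferase reporter driven by a hormone response element, co-transfected with human PR-B into CV-1 monkey kidney cells, agonists raise and antagonists lower the reporter signal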
Sequence (P06401 whole entry): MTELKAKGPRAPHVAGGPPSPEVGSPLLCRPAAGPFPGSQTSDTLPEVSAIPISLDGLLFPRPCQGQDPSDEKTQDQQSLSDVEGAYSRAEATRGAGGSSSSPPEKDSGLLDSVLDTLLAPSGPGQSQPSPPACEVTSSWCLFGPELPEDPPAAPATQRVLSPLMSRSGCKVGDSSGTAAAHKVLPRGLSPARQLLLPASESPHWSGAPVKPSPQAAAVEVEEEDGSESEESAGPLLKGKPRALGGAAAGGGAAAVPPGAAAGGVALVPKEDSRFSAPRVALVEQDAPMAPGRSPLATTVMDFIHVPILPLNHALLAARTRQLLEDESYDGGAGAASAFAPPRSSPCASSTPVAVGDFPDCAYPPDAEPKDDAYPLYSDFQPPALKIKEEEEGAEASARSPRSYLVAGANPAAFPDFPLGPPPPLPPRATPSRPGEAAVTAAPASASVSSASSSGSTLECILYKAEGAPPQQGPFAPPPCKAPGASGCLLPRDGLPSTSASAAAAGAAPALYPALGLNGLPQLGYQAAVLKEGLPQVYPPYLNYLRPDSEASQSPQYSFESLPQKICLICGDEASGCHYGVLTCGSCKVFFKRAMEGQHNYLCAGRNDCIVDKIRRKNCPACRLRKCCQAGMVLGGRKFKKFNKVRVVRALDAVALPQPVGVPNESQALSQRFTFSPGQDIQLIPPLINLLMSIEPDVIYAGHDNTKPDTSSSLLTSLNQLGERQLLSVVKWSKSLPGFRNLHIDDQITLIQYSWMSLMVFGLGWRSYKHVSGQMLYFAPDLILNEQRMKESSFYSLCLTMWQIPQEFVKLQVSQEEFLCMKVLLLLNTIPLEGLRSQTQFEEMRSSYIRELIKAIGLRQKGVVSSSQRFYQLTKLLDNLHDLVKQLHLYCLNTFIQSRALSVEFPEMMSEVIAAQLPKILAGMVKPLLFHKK
readout.type: PR Agonist CV-1 Cells Efficacy (%)

INSERT INTO results (compound, test_system, readout_type, test_result) VALUES
  ('CC1C(=O)C(C)(C)Nc2ccc3c(c21)/C(=C/c1cccc(F)c1)Oc1ccccc1-3 (racemic)', 'human PR-B (Homo sapiens)', 'PR Agonist CV-1 Cells Efficacy (%)', '133%'),
  ('CC1=CC(C)(C)Nc2ccc3c(c21)/C(=C/c1ccccc1C)Oc1ccc(F)cc1-3', 'human PR-B (Homo sapiens)', 'PR Agonist CV-1 Cells Efficacy (%)', '231%'),
  ('CCCCC1Oc2ccccc2-c2ccc3c(c21)C(C)C(O)(CCCC)C(C)(C)N3 (racemic)', 'human PR-B (Homo sapiens)', 'PR Agonist CV-1 Cells Efficacy (%)', '27%'),
  ('CC1=CC(C)(C)Nc2cc(C)c3c(c21)/C(=C/c1ccccc1)Oc1ccc(F)cc1-3', 'human PR-B (Homo sapiens)', 'PR Agonist CV-1 Cells Efficacy (%)', '101%'),
  ('CC1=CC(C)(C)Nc2ccc(-c3nn(C)cc3Br)cc21', 'human PR-B (Homo sapiens)', 'PR Agonist CV-1 Cells Efficacy (%)', '39%'),
  ('CC1(C)C=Cc2c(ccc3c2/C(=C/c2ccccc2)Oc2ccc(Cl)cc2-3)N1', 'human PR-B (Homo sapiens)', 'PR Agonist CV-1 Cells Efficacy (%)', '183%'),
  ('CC1=CC(C)(C)Nc2ccc3c(c21)C(C)Oc1ccc(Cl)cc1-3 (racemic)', 'human PR-B (Homo sapiens)', 'PR Agonist CV-1 Cells Efficacy (%)', '138%');
